# experiment description: soluble on expression in E. coli; label from the status in PepcDB or PDB records
experimental readout: soluble on expression in E. coli

| polymer sequence | result value |
| --- | --- |
| VLDVDTARRRIVDLTDAVRAFCTAHDDGLCNVFVPHATAGVAIIETGAGSDEDLVDTLVRLLPRDDRYRHAHGSYGHGADHLLPAFVAPSVTVPVSGGQPLLGTWQSIVLVDLNQDNPRRSVRLSFVEG | not soluble |
| MGSDKIHHHHHHMLNSDLDIRLEPRIKELYRLHKERSANIDWSYHEFIPWDKAMSFKRVPWEESQVTLPEGVIVAVETALLTEVNLPWYTSHLDYTFKNSMEVINDFVRTWTAEEDQHSSLLETYLLVTRNVNPTRLHQLRRRVVESGWFPDFTNPLATMAYTSLQELATLVFYNNVARVAGAHDKDLATLLRRLAKDEALHYAFYRDTVKAHLELDPNFIVFFEDVIINFSMPGAIMPDFTERMKTIAIDTNYGPLQYFDQVLDVVVKYWDIENLQPTSEEAKQSQANIMKYHGRLKRIKDRQSAKNKIDA | not soluble |
| MIPKKSSFIVTYAFRIKPTSPQDSGSNRMIIVITPTYKRITRLADITRLANTLSQVENLHWIVIEDGESTIPNVQNILERSELLYTYVAHRTASGYPARGWYQRDMALKLIRTNPSQILGEHEGEAVIYFADDDNSYDLRLFEDYIRNVKKLGLWAVGLAGGAAVEAPNVVNKKVTSFNFKWKSKRRFAVDMAGFAINLDYILNSSAVFGTECKRGDGAPETCLLEDLGFDLNDIEPFGYEKEASEIYSSLYSMVFYLQKNNEILVWHTKTSYSGMKVKEAEKFGYFVEP | not soluble |
| EVQLVESGGGLVQPGGSLRLSCAASGFTFSDYGIAWVRQAPGKGLEWVAFISDLAYTIYYADTVTGRFTISRDNSKNTLYLQMNSLRAEDTAVYYCARDNWDAMDYWGQGTLVTVSSASTKGPSVFPLAPSSKSTSGGTAALGCLVKDYFPEPVTVSWNSGALTSGVHTFPAVLQSSGLYSLSSVVTVPSSSLGTQTYICNVNHKPSNTKVDKKVEPKSCDKTHTC | soluble |
| KKSPMLCGQYPVKSEGKELKIVVQPETQHRARYLTEGSRGSVKDRTQQGFPTVKLEGHNEPVVLQVFVGNDSGRVKPHGFYQACRVTGRNTTPCKEVDIEGTTVIEVGLDPSNNMTLAVDCVGILKLRNADVEARIGIAGSKKKSTRARLVFRVNIMRKDGSTLTLQTPSSPILCTQPAGVPEILKKSLHSCSVKGEEEVFLIGKNFLKGTKVIFQENVSDENSWKSEAEIDMELFHQNHLIVKVPPYHDQHITLPVSVGIYVVTNAGRSHDVQPFTYTPD | soluble |
| MAHHHHHHMKLLSSVGRLSVVAGGLSLIPYTFIYDVDGGERCVMFNRFGGVSENTYGEGSHFYIPWFQTPYIYDIKMKPKVINTTTGTRDLQIVTLSLRLLFRPHTKQLPYLHSTLGPDYDERVLPSIGNEVLKAVVAKYNAESLLTQRDKISKEIRESITARAKHFNILLDDVAITHLSYGKEFAKAIEDKQVAQQESERVKFIVAKTEQEKIAAVIKAQGEAEAAKLISSAVKEYGNSLLEIRKLEAAKEIAENLSKSKNVTYFPASFNILLNPKNL | not soluble |
| STFAYIANSESDNISVIDVTSNKVTATIPVGSNPMGAVISPDGTKVYVANAHSNDVSIIDTATNNVIATVPAGSSPQGVAVSPDGKQVYVTNMASSTLSVIDTTSNTVAGTVKTGKSPLGLALSPDGKKLYVTNNGDKTVSVINTVTKAVINTVSVGRSPKGIAVTPDGTKVYVANFDSMSISVIDTVTNSVIDTVKVEAAPSGIAVNPEGTKAYVTNVDKYFNTVSMIDTGTNKITARIPVGPDPAGIAVTPDGKKVYVALSFCNTVSVIDTATNTITATMAVGKNPYASGQFIGSIPVQPVYPSADFKSNITSGYIFLSEPVQFTDLSKDATEWKWDFGDGSSSKKQNPTHTYSETGIYTVRLTVSNSNGTDSQISTVNVVLKGSPTPS | soluble |
| MGSDKIHHHHHHLTLSIEHLTGGYTQTPVIKDINFEVKNGELLGLIGLNGAGKSTTINHVIGLMRPMKGKIILDEIDLEQNPTQYKTKLAYIPELPILYDELTLKEHIELTIKAYEMNSEKAWQQAHKLLKTFRLENKLDWFPANFSKGMRQKVMIVCAFITDAELFVVDEPFLGLDPLAIDDLLKVINEKKQQGASILMSTHVLDTAEKYCDRFALLNEGELKAVGTLADFQKQFNLPNSSLNDIYLTIAKGERDE | not soluble |
| MGSDKIHHHHHHMSKSHAVVHSALADEASQHNNTLSWFDITPADQERVRSLAPIADHVGEEIIADFYAHILRFEDAAQQFADDTQIERVKRGQKKYFQELINAELDESYAEERKRIGGIHERAGITPTLYVGSYAYYLQRLSQSILENGKEDPHKLFGLVLSMMKIAHYDMALALETYVEAREKTIEIHERQMRELPTPVLELREGLLLVPVVGALDSHRARTLTMQLLDGIRDTRSRAVVLDITGAVSIDSSVANHLFQAMTAARLMGAKSILAGISPTVAQELFRIGVDTKTFTTARNLQQGIELAASALEAHSKHSV | not soluble |
| MAHHHHHHMNEVVPHVAELMTDQYANFLIQKLFDMMPQDVRYKVARVAAPKIISIALTPHGTFSVQKMVETIASREEMDILREALSKDVVRLVKDAHGNHVIQKVLQRFSHADKEFIYAAVGSDCISIAKNKQGCCVLQRCLEYASCSQRATLVNQILRCCLQIAEDPFGNYVLQYVLESNDSKTTDTIAIAFLPHLVQLCMNKFSSNVIEKVLRGASQPVQEMYVETMCSPDVVSRLIQDDFGNYVLQTALTICSSAQAESLVSAVRPLMPIIRNAPYAKKLEGKIDGIVHKTAGNDRNSFAEYEKSRQGEMNEQNCDILLPHHARESSVAPHQQLSS | not soluble |

---

# experiment description: soluble on expression in E. coli; label from the status in PepcDB or PDB records

| polymer sequence | soluble on expression in E. coli |
| --- | --- |
| IGIVNDMPLAVEALRRALAFEPQHQIVWVASNGAEAVTQCAADTPDVVLMDLLMPVMDGVEATRRIMAESPCAIVIVTVDIEQNVHRVFEAMGYGALDAVNTPALGIGNPQTAAAPLLRKIQNVGWLIGQRDNRGKVQVVPPKAGGARQRLVAIGASAGGPASLAVLLKQLPASFNAAVVLVQHVDEVFAAGMAEWLASESKLPVRLARDGEPPIPGQILLAGTNNHIRLLRNGSLVYTAEPRSFVYRPSIDVFFESVANYWRGDAVGVLLTGMGRDGAQGLKQMRERGFLTIAQDQASCAVYGMPKAAAAIDAAVQILSLEKIA | not soluble |
| MMCGGRGTRLDAAAEKPLFEVGGRAMVDHVRAALEAAGRIDTTHAAVSPHAPDTAAHLAATPLSLIETPGDGYVADLTAALDAVGTPVLTVAADLPLLAPAVVDTVVAAADGATTSACVPRALKHELGVSTDADADAWVPTGVNVVGGGDTEATHRSFDARLAVNVNHRSDAAVAARLLAATDRRNHPRLEHHHHHH | not soluble |
| MPGHRITLTGEKQTLLITLYAKALDSRLDDSILHDRFAEEAVRQIDFDFSRVALGKGNERALAMRSHYFDQACREFLGRHPEGQVLNLGCGLDSRIYRVDPPAELPWFDLDYPEVMDLRERLYPPRAGAYRALRHSVDDDGWLQGVPRERPALVLAEGLMPYLRESQVRRLVERLVDHLGSGELLFDGYGRLGIMLLRLYPPLRETGAQVHWSIDDPRELERWHPALRFIEEVTDYDPQDVAKLPQSSRLMLPIYNGFAFLRRMGRLIRYRWPRV | not soluble |

---

# experiment description: soluble on expression in E. coli; label from the status in PepcDB or PDB records

| polymer sequence | soluble on expression in E. coli |
| --- | --- |
| MIVAFCLYKYFPFGGLQRDFMRIASTVAARGHHVRVYTQSWEGDCPKAFELIQVPVKSHTNHGRNAEYYAWVQNHLKEHPADRVVGFNKMPGLDVYFAADVCYAEKVAQEKGFLYRLTSRYRHYAAFERATFEQGKSTKLMMLTDKQIADFQKHYQTEPERFQILPPGIYPDRKYSEQIPNSREIYRQKNGIKEQQNLLLQVGSDFGRKGVDRSIEALASLPESLRHNTLLFVVGQDKPRKFEALAEKLGVRSNVHFFSGRNDVSELMAAADLLLHPAYQEAAGIVLLEAITAGLPVLTTAVCGYAHYIADANCGTVIAEPFSQEQLNEVLRKALTQSPLRMAWAENARHYADTQDLYSLPEKAADIITGGLDG | soluble |
| MSLKVLVTGGAGYVGTELVLKLAKDPSISKVVVFDNLSRENYNLFINSAQRIAKDKIQFEFGDLLDSRKIRKILADIDVVYHLAARVSTPFANADSHLYEQVNHWGTAELVYAIEEIKTVQKLIYVSSCSVYGSGKELIDENSVVNPKTIYGVSKMRGEEHVSRLGNKMNAVIIRLGNVYGYSSSMRFDAVINKFMFESHYKNRISIHGNGRQSRSFIHVDKAVDSLVKITSTDIPSGTYNLTERNLEIYDLIDQVKDLYPTLEFIFINQHLELREQKINPETKLLKYIPLQQTDFTAELAAFRDHFTFQTTSEGHHHHHH | soluble |
